Values compiled from PubChem BioAssay (NCI).

Entries and their growth values follow.
- Tested on: HCT-15 colon
- procedureDetails: NCI-60 one-dose screen, 48 h (100 = growth as untreated, 0 = no growth, -100 = all killed)
- settings: 10 µM unless noted
Compounds without any hit were thinned out: in the full panel of roughly 83,000, 20% have a hit. The source made the active and inactive calls. How the source made its calls: active means growth percent below 10; inactive means the rest.

compound	growth
O=c1[nH]nc(-c2ccccc2)c2sc3ncc(-c4ccc(Br)cc4)n3c12	94.5% (inactive)
Nc1c(C(=O)Nc2cccc3cnccc23)sc2nc3c(cc12)CN(Cc1ccccc1)CC3	107% (inactive)
C/C(=N\Nc1cc(C)nc2ccc(Br)cc12)c1ccc([N+](=O)[O-])cc1	21.7% (inactive)
CCCCCCNC(=O)Oc1ccc(/C(=C(\C)c2ccccc2)c2ccc(OCCN3CCCCC3)cc2)cc1	8.13% (active)
CC/C(=C\c1ccc(OC)cc1)C(=O)c1ccc(OC)cc1	92.7% (inactive)
CC(=O)N1c2ccccc2NC2=C(C(=O)NC2(C)C)C1c1ccco1 (stereo not given)	93.1% (inactive)
CC(=O)[C@@H]1CC[C@]2(CO)CC[C@]3(C)[C@H](CC[C@@H]4[C@@]5(C)CCCNC(C)(C)[C@@H]5CC[C@]43C)[C@@H]12	81.5% (inactive)
O=C(/C=C/c1ccc(F)cc1)c1ccc(NC(=O)N2CCN(c3cc4c(cc3F)c(=O)c(C(=O)O)cn4C3CC3)CC2)cc1	101% (inactive)
COc1cc(-c2n/c(=C\c3c(O)[nH]c4ccc(Cl)cc34)cc3c2=Nc2ccccc2-3)ccc1F	46.4% (inactive)
COc1cc2c3c(c4c5ccccc5[nH]c4c2c(OC)c1OC)C(=O)N(CCN1CCOCC1)C3=O	50% (inactive)
Cn1c(-c2c(N)n(CCCN3CCOCC3)c3nc(C#N)c(C#N)nc23)nc2ccccc21	67.1% (inactive)
CCOc1cccc(-c2nc(N)nc(Nc3ccccc3SSc3ccccc3Nc3nc(N)nc(-c4cccc(OCC)c4)n3)n2)c1	18.5% (inactive)
O=C(/C(=C/c1ccc([N+](=O)[O-])cc1)SCc1ccc(F)cc1)c1ccc(F)cc1	37.2% (inactive)
Cc1nc(N)nc(N[C@@H](C)c2nc3cccc(NCc4ccc(C(=O)NO)cc4)c3c(=O)n2-c2ccccc2)n1	110% (inactive)
Nc1nc(Nc2ccccc2SSc2ccccc2Nc2nc(N)nc(-c3cccs3)n2)nc(-c2ccsc2)n1	56.7% (inactive)
COC(=O)C(CC=O)C(=O)C(=O)Nc1cccc(C(F)(F)F)c1 (stereo not given)	108% (inactive)
O=C1Nc2ccccc2/C1=C\c1c(-c2ccc(F)cc2)nc2ccccn12	58.2% (inactive)
Cn1c2ccccc2c2c3c(c4c5ccccc5n(C)c4c21)C(=O)OC3	96.7% (inactive)
CN1[C@@H]2CC[C@H]1/C(=C\c1ccccc1)C(=O)/C2=C/c1ccccc1	27.9% (inactive)
N#C/C(=C\c1ccc(Cl)cc1)n1nnc2cc(F)c(F)cc21	2% (active)
CCCCCCCCO/N=C\c1c2c(O)c3c(O)c(C)c4c(c3c1O)C(=O)C(C)(O/C=C\C(OC)C(C)C(OC(C)=O)C(C)C(O)C(C)C(O)C(C)/C=C\C=C(\C)C(=O)N2)O4 (stereo not given)	19.1% (inactive)
CCN(CC)c1ccc(C(=O)c2ccccc2)cc1	105% (inactive)
COc1cc(/C=C\c2cc(OC)c(OC)c(OC)c2)cc(NC(=O)/C=C/c2cc(OC)c(OC)c(OC)c2)c1OC	34.6% (inactive)
Cc1cc2nc3c4cc(C=O)ccc4n(CCN(C)C)c3nc2cc1C	2.81% (active)
O=S(=O)(NCCNc1nccc(-c2c(-c3cccc(O)c3)nc3occn23)n1)c1ccc(Cl)cc1	113% (inactive)
N#CC1=C(N)Oc2c(cnn2-c2ccc([N+](=O)[O-])cc2[N+](=O)[O-])C1c1ccccc1 (stereo not given)	93.2% (inactive)
COc1cc(/C(C)=C(\c2ccc(Cl)cc2)c2ccc(OCCN(C)C)cc2)ccc1F	18.1% (inactive)
Nc1nc(Nc2ccccc2SSc2ccccc2Nc2nc(N)nc(-c3ccc(C(F)(F)F)cc3)n2)nc(-c2ccc(C(F)(F)F)cc2)n1	17.2% (inactive)
CCOC(=O)Nc1ccc(-c2ccc3c(c2)NC(=O)/C3=C\c2ccc[nH]2)cc1	84.6% (inactive)
C=C1C(=O)O[C@H]2[C@H]1CC/C(CNC(=O)C(C)c1ccc(CC(C)C)cc1)=C\CC[C@@]1(C)O[C@@H]21 (stereo not given in full)	-55.7% (active)

====

- Tested on: HCC-2998 colon
- procedureDetails: NCI-60 one-dose screen, 48 h (100 = growth as untreated, 0 = no growth, -100 = all killed)
- settings: 10 µM unless noted
About 83,000 compounds went through this panel and 20% of them were active in at least one assay; those are over-represented in the sample as a whole.
experimentalEndpoint: growth (%)

In [3]: df
Out[3]:
                             molecularstring  unitofmeasurement  observedresult
 0  COc1ccc(C(=O)c2cc(C)c(OC)c(C)c2)c(OC)c1NC(C)=O                  %            13.8
 1  COc1ccccc1/C(C)=N/NC(=O)CSc1nc2ccccc2c(=O)n1Cc1ccc(S(N)(=O)=O)cc1                  %            95.9
 2  COC(=O)/C=C1\S/C(=N\NC(=O)c2cc3ccc2/C=C\c2ccc(cc2)/C=C\3)N(c2ccccc2)C1=O                  %            3.64
 3  O=C1Nc2ccccc2/C1=C\c1c(-c2ccccc2)nc2ccccn12                  %             107
 4  CC1(C)NCCC[C@]2(C)[C@H]3CC[C@@H]4[C@H]5[C@H](C(=O)/C=C/c6ccco6)CC[C@]5(CO)CC[C@@]4(C)[C@]3(C)CC[C@@H]12                  %            91.4
 5  CN1[C@@H]2CC[C@H]1/C(=C\c1ccccc1)C(=O)/C2=C/c1ccccc1                  %            63.3
 6  C=C1C(=O)O[C@H]2[C@H]1CC/C(CNC(=O)/C=C/c1cccc(OC)c1)=C\CC[C@@]1(C)O[C@@H]21                  %            36.5
 7  COc1ccc2[nH]c(=O)c(CN3CCN(c4nccc(-c5ccc(Cl)cc5)n4)CC3)cc2c1                  %             105
 8  COc1cccc(-c2nc3occn3c2-c2ccnc(NCCNS(=O)(=O)c3cccc4ccccc34)n2)c1                  %             132
 9  O=S(=O)(NCCCNc1nccc(-c2c(-c3cccc(F)c3)nc3sccn23)n1)c1cccc(F)c1                  %            99.3
10  CNCCOc1nc2c3cnccc3cc(-c3cc(OC)c(OC)c(OC)c3)c2c2ccncc12                  %             -77
11  COc1ccc2nc(-c3ccc(-c4noc(-c5cc(OC)c(OC)c(OC)c5)n4)cc3)[nH]c2c1                  %             111
12  O=C(NCCc1ccccc1)Nc1ccc2cc3ccc(NC(=O)NCCc4ccccc4)cc3nc2c1                  %           -8.17
13        COc1cc(CC(=O)c2ccc(O)c(OC)c2)ccc1O                  %             103

====

- Tested on: HOP-62 NSCLC
- procedureDetails: NCI-60 one-dose screen, 48 h (100 = growth as untreated, 0 = no growth, -100 = all killed)
- settings: 10 µM unless noted
This is part of a sample that, as a whole, favours compounds with a hit. Of some 83,000 tested, about 20% had one in any assay.
Output schema: class label derived from growth. Mapping: range A: < 60%; range B: ≥ 60% and < 90%; range C: ≥ 90%

compound	group
CCCN1[C@@H]2CC[C@H]1/C(=C\c1ccc(OC)c(OC)c1)C(=O)/C2=C/c1ccc(OC)c(OC)c1	range B
O=C(Nc1ccc(NC(=O)c2cc(=O)[nH]c3ccccc23)cc1)Nc1cccc(Cl)c1	range B
COc1ccc(NC(N)=NCCCOc2ccc(F)cc2)cc1	range B
Cc1ccc(-c2csc(NC(=O)CSc3nc(-c4ccccc4)cc(=O)[nH]3)n2)cc1	range C
Cn1ccnc1C(=O)/C=C/c1ccc(CC(=O)NC2CCCCC2)cc1	range A
N/C(=N\C(N)=N\c1nc2ccccc2s1)c1cnccn1	range A
N/C(=N\C(N)=N\c1nc2ccccc2s1)c1ccnc(Br)c1	range A
O=C(/C=C/c1ccc[nH]1)c1ccc(-n2ccc(C(F)(F)F)n2)c(F)c1	range C
N#CC1=C(N)Oc2c(cnn2-c2ccc([N+](=O)[O-])cc2[N+](=O)[O-])C1c1ccccc1 (stereo unspecified)	range C
N=C1C(c2nc3ccccc3s2)=C(O)CN1c1cc(Cl)cc(Cl)c1	range B
CC(=O)CCC(=O)OCc1cc(=O)c(O)co1	range C
COc1cc2c(=O)n(CCCN(C)C)c3c4cc5c(cc4ccc3c2cc1OC)OCO5	range A
COc1cc(C2C3=C(COC3=O)N(CCO)c3cc4c(cc32)OCO4)cc(OC)c1OC (stereo unspecified)	range A
COc1cc2nc(-c3ccc(C(F)(F)F)cc3)cc(OCCCN3CCOCC3)c2cc1OC	range A
